The measured values listed here are drawn from patent US20260184768A1.

The entries below are paired with their reported EC50.
# assay-target: PcrV 136-233 (Pseudomonas aeruginosa)
# procedure-text: ELISA, PcrV coated on plate, chemiluminescence
# number only, unit nM dropped from output

Some solved cases for reference:
[[record]]
binder = "H1H29336P (antibody, V domains shown) VH: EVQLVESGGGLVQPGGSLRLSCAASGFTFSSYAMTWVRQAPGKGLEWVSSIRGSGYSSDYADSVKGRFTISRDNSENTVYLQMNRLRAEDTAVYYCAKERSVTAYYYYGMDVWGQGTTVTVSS VL: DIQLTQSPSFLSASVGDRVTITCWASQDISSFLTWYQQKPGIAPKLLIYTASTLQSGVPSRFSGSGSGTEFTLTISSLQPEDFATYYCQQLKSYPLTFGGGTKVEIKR"
meas_value = 1.03

[[record]]
binder = "H1H29339P (antibody, V domains shown) VH: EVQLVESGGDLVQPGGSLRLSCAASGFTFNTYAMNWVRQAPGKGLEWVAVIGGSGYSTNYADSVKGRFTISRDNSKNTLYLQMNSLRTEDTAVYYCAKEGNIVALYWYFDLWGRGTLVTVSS VL: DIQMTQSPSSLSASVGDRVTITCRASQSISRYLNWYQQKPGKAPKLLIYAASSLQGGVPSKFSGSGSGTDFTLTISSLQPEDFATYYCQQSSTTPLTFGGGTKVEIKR"
meas_value = 0.856


Now for a further binder.
Query string: GET /values?readout=EC50&item= H1H29332P (antibody, V domains shown) VH: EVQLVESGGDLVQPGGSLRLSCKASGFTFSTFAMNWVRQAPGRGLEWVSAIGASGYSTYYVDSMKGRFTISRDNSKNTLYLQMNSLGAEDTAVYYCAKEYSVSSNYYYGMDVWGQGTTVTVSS VL: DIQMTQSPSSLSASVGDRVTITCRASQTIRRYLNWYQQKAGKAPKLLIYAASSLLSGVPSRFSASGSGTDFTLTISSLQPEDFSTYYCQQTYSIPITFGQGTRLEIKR
Result string: 0.814
